Consider the following compounds; for each one, report its pIC50.
# target_under_test: recombinant human GR (Homo sapiens, UniProt P04150)
# Construct: purchased Panvera/Invitrogen P2812 (kit P2893)
# Sequence (P04150 whole entry): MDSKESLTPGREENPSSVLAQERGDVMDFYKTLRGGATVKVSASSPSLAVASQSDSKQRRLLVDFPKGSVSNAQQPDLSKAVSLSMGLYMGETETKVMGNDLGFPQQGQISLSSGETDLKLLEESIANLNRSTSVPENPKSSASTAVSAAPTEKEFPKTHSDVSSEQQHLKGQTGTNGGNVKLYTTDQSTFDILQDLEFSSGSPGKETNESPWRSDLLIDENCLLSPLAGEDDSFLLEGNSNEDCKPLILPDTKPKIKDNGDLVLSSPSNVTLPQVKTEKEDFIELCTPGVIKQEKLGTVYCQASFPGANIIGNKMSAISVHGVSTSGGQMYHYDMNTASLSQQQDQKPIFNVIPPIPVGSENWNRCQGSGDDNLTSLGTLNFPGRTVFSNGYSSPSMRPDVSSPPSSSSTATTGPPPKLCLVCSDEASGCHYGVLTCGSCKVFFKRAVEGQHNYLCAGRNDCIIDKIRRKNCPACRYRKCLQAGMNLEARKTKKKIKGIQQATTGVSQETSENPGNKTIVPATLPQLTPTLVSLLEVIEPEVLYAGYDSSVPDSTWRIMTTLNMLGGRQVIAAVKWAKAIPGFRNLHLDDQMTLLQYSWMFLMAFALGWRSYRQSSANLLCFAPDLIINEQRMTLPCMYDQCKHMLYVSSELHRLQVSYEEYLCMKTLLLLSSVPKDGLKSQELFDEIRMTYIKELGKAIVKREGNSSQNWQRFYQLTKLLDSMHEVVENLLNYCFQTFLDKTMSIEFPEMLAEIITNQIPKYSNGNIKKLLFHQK
# assay_info: Human Glucocorticoid Receptor (GR) Assay, fluorescence polarization competition with GS Red tracer
# condition_info: 2 hours at room temperature, 100% control 10 μM Dexamethasone, XLfit model 205, read-out: Inhibition of GR binding, IC50
pIC50 is a log-scale quantity: -log10 of the concentration expressed in molar.

[in] Return reported pIC50. Input compound: CCC(=O)O[C@]1(C(=O)SCF)[C@H](C)C[C@H]2[C@@H]3CCC4=Cc5c(cnn5-c5cccc(C(=O)NCC(N)=O)c5)C[C@]4(C)[C@@]3(F)[C@@H](O)C[C@@]21C
[out] 8.92

[in] Return reported pIC50. Input compound: COCC(=O)O[C@]1(C(=O)SCF)CC[C@H]2[C@@H]3C[C@H](C)C4=Cc5c(cnn5-c5cccc(C(=O)NCC(N)=O)c5)C[C@]4(C)[C@H]3[C@@H](O)C[C@@]21C
[out] 8.08

[in] Return reported pIC50. Input compound: C[C@]12Cc3cnn(-c4cccc(C(=O)N5CCC[C@@H]5C(N)=O)c4)c3C=C1CC[C@H]1[C@@H]3CC[C@](OC(=O)C4CC4)(C(=O)SCF)[C@@]3(C)C[C@H](O)[C@@]12F
[out] 8.46

[in] Return reported pIC50. Input compound: COCC(=O)O[C@]1(C(=O)SCF)[C@H](C)C[C@H]2[C@@H]3CCC4=Cc5c(cnn5-c5cccc(C(=O)N[C@@H](C)C(N)=O)c5)C[C@]4(C)[C@@]3(F)[C@@H](O)C[C@@]21C
[out] 8.72

[in] Return reported pIC50. Input compound: C[C@]12Cc3cnn(-c4cccc(C(=O)N5CCC[C@@H]5C(N)=O)c4)c3C=C1CC[C@@H]1[C@@H]2[C@@H](O)C[C@@]2(C)[C@H]1CC[C@]2(OC(=O)c1cocn1)C(=O)SCC#N
[out] 7.92

[in] Return reported pIC50. Input compound: CCC(=O)O[C@]1(C(=O)SCC#N)CC[C@H]2[C@@H]3CCC4=Cc5c(cnn5-c5cccc(C(=O)N6CCC[C@@H]6C(N)=O)c5)C[C@]4(C)[C@@]3(F)[C@@H](O)C[C@@]21C
[out] 8.48

[in] Return reported pIC50. Input compound: CCC(=O)O[C@]1(C(=O)SCF)CC[C@H]2[C@@H]3CCC4=Cc5c(cnn5-c5cccc(C(=O)N[C@H](C)C(N)=O)c5)C[C@]4(C)[C@@]3(F)[C@@H](O)C[C@@]21C
[out] 8.60

[in] Return reported pIC50. Input compound: COCC(=O)O[C@]1(C(=O)SCF)CC[C@H]2[C@@H]3CCC4=Cc5c(cnn5-c5cccc(C(=O)N6CCC[C@@H]6C(N)=O)c5)C[C@]4(C)[C@H]3[C@@H](O)C[C@@]21C
[out] 8.05

[in] Return reported pIC50. Input compound: COCC(=O)O[C@]1(C(=O)SCF)CC[C@H]2[C@@H]3CCC4=Cc5c(cnn5-c5cccc(C(=O)NCC(N)=O)c5)C[C@]4(C)[C@@]3(F)[C@@H](O)C[C@@]21C
[out] 8.52

###

# target_under_test: recombinant human GR (Homo sapiens)
# assay_info: Human Glucocorticoid Receptor (GR) Assay, fluorescence polarization competition with GS Red tracer
# condition_info: 2 hours at room temperature, 100% control 10 μM Dexamethasone, XLfit model 205, read-out: Inhibition of GR binding, IC50
assay_endpoint: pIC50
pIC50 is a log-scale quantity: -log10 of the concentration expressed in molar.

[in] Return reported pIC50. Input compound: COCC(=O)O[C@]1(C(=O)SCF)CC[C@H]2[C@@H]3CCC4=Cc5c(cnn5-c5cccc(C(=O)NCCSC)c5)C[C@]4(C)[C@H]3[C@@H](O)C[C@@]21C
[out] 8.74

[in] Return reported pIC50. Input compound: CCC(=O)O[C@]1(C(=O)SCF)CC[C@H]2[C@@H]3CCC4=Cc5c(cnn5-c5cccc(C(=O)N(C)CC(N)=O)c5)C[C@]4(C)[C@@]3(F)[C@@H](O)C[C@@]21C
[out] 8.42

[in] Return reported pIC50. Input compound: COCC(=O)O[C@]1(C(=O)SCF)CC[C@H]2[C@@H]3CCC4=Cc5c(cnn5-c5cccc(C(=O)N[C@@H]6CCOC6)c5)C[C@]4(C)[C@H]3[C@@H](O)C[C@@]21C
[out] 8.52
